FYI, the data here is from PubChem BioAssay.

molecular target: Nuclear receptor subfamily 5 group A member 2 (Homo sapiens); assay: LRH-1 (NR5A2) inverse agonists, retest, confirmation, cell-based, luminescence (AID 651613); settings: cell-based LRH-1 luciferase reporter, inverse agonism; at 3.6 µM; stronger effect = higher value;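 also: HEK293T cells co-transfected with LRH-1 and StAR promoter luciferase reporter; 0% = vehicle wells and 100% = parental cells lacking receptor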
Calls of active or inactive are those of the source. Rule as the data show it: active = inhibition above about 42%; inactive = the rest.
For each record, write down the corresponding inhibition.

[[record]]
compound = "Cc1csc(NC(=O)CSc2nc3[nH]c(=O)cc(O)c3s2)n1"
outcomemeasure = "inhibition"
valueobserved = "60.5% (active)"

[[record]]
compound = "Cc1ccc(NC(=O)CSc2nc3ncc(Br)cc3[nH]2)cc1C"
outcomemeasure = "inhibition"
valueobserved = "54.5% (active)"

[[record]]
compound = "NC(=O)COc1ccc2c3c(c(=O)oc2c1)CCCCC3"
outcomemeasure = "inhibition"
valueobserved = "40.5% (inactive)"

[[record]]
compound = "CNC(=O)c1nc(C)c(C2(C)CC(c3cccc([N+](=O)[O-])c3)=NO2)s1 (configuration not stated)"
outcomemeasure = "inhibition"
valueobserved = "27% (inactive)"

[[record]]
compound = "CCc1cc(=O)oc2c(C)c(OCC(=O)NCCCN3CCOCC3)ccc12"
outcomemeasure = "inhibition"
valueobserved = "48.7% (active)"

[[record]]
compound = "CCCCCOc1ccc(Br)cc1CSC(=N)N"
outcomemeasure = "inhibition"
valueobserved = "99.7% (active)"


State the recorded inhibition for every item in the following list.
1. CC(Nc1ncnc2sccc12)c1ccccc1 (configuration not stated)
2. COc1ccc(S(=O)(=O)N2CCOCC2)cc1N=Nc1sc(N)nc1-c1ccccc1
3. O=C(CSc1cc(Cl)ccc1Cl)Nc1ccc(N2CCOCC2)cc1
4. COc1ccc(NC(=O)c2sc(=O)n(Cc3ccc(F)c(Cl)c3)c2C)cc1OC
5. CCCCCCCCNc1ncnc2ccccc12
6. COc1cc(NC(=O)Cn2ccsc2=N)c(C)cc1[N+](=O)[O-]
7. CCc1c(C)nc(SCC(=O)Nc2ccc3c(c2)OCCO3)[nH]c1=O
8. COc1ccc(/C=C2\SC(=O)N(CCCC(=O)Nc3cc(Cl)ccc3C(=O)O)C2=O)cc1

Response:
1: 64.5% (active); 2: 60.7% (active); 3: 63.9% (active); 4: 66.2% (active); 5: 63.7% (active); 6: 49.5% (active); 7: 63.7% (active); 8: 94% (active)
